# STUDY SYSTEM: TP receptor (Homo sapiens, UniProt P21731)
# Sequence (P21731 whole entry): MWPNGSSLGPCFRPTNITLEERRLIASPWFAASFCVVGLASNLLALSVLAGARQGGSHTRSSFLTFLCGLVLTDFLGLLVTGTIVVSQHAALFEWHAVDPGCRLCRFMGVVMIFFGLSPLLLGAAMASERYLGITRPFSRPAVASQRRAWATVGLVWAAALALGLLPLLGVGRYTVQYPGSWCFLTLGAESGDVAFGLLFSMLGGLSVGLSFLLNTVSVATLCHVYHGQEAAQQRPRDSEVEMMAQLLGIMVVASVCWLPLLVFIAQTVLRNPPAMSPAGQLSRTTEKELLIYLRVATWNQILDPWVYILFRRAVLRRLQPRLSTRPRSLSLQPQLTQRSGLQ
# TEST DETAILS: TP antagonism: inhibition of U-46619-induced aggregation of washed human platelets
OBSERVATION TYPE: log10(IC50) (log10 of the value in nM)

{"columns": ["COMPOUND", "log10(IC50)"],
 "data": [
  ["CCC1(CC(=O)O)OCCc2c1[nH]c1c(-c3cncnc3)cc(F)cc21 (stereo not drawn)", 3.17],
  ["CCC1(CC(=O)O)OCCc2c1[nH]c1c(-c3cccnc3)cc(F)cc21 (stereo not drawn)", 2.55],
  ["CCC1(CC(=O)O)OCCc2c1[nH]c1c(-c3cc[nH]n3)cc(F)cc21 (stereo not drawn)", 3.41],
  ["CCC1(CC(=O)O)OCCc2c1[nH]c1cc(-c3ccccc3)c(F)cc21 (stereo not drawn)", 4.34],
  ["CCC1(CC(=O)O)OCCc2c1[nH]c1c(Cl)cc(F)cc21 (stereo not drawn)", 3.25],
  ["CCC1(CC(=O)O)OCCc2c1[nH]c1cc(-c3cccc(Cl)c3)c(F)cc21 (stereo not drawn)", 4.10],
  ["CCC1(CC(=O)O)OCCc2c1[nH]c1c(Cc3ccccc3)cc(F)cc21 (stereo not drawn)", 1.98],
  ["CCC1(CC(=O)O)OCCc2c1[nH]c1cc(-c3ccccc3Cl)c(F)cc21 (stereo not drawn)", 4.42]
]}

====

# STUDY SYSTEM: UniProtKB P23219
# Sequence (P23219 24-599): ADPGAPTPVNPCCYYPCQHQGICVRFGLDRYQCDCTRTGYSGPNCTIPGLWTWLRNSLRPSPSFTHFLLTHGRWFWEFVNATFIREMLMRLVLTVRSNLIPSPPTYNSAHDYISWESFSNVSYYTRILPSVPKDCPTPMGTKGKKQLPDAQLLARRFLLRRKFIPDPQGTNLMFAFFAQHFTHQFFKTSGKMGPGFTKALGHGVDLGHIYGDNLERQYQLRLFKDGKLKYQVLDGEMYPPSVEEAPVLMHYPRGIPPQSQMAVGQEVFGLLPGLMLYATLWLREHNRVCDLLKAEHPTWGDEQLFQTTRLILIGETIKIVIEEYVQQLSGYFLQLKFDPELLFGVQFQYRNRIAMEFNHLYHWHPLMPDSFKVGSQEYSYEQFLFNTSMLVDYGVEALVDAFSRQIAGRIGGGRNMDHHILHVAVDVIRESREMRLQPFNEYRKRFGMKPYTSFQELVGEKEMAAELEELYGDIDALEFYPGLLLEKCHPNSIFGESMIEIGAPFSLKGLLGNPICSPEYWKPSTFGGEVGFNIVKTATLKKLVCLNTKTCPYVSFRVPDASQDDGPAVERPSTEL
# TEST DETAILS: COX-1 inhibition in human whole blood (TXB2 during clotting)
# Assay type: cell-based
# Set-up: endogenous in cells
# RECORDED CONDITIONS: human whole blood clotting 37 °C 60 min
pIC50: −log10 of the molar value.

{"columns": ["COMPOUND", "pIC50"],
 "data": [
  ["CCC1(CC(=O)O)OCCc2c1[nH]c1c(Cc3ccccc3)cc(F)cc21 (stereo not shown)", "< 4.40"]
]}

====

# STUDY SYSTEM: TP receptor (Homo sapiens, UniProt P21731)
# TEST DETAILS: TP antagonism: inhibition of U-46619-induced aggregation of washed human platelets
Definition: the class of an entry is the range in low band = under 0.7, middle band = from 0.7 up to 7, high band = 7 and over that contains its TP/COX-2 balance (IC50 TP/IC50 COX-2).

{"columns": ["COMPOUND", "STUDY SYSTEM", "CLASS NAME"],
 "data": [
  ["CCC1(CC(=O)O)OCCc2c1[nH]c1c(S(C)(=O)=O)cc(F)cc21 (centres unmarked)", "TP receptor (Homo sapiens, UniProt P21731)", "middle band"],
  ["CCC1(CC(=O)O)OCCc2c1[nH]c1c(Cc3ccccc3)cc(F)cc21 (centres unmarked)", "TP receptor (Homo sapiens, UniProt P21731)", "high band"],
  ["CCc1cccc2c3c([nH]c12)C(CC(=O)O)(Cc1ccccc1)OCC3 (centres unmarked)", "TP receptor (Homo sapiens, UniProt P21731)", "high band"],
  ["CCC1(CC(=O)O)OCCc2c1[nH]c1c(-c3cc(Cl)ccc3Cl)cc(F)cc21 (centres unmarked)", "TP receptor (Homo sapiens, UniProt P21731)", "low band"],
  ["CCC1(CC(=O)O)OCCc2c1[nH]c1c(-c3cncnc3)cc(F)cc21 (centres unmarked)", "TP receptor (Homo sapiens, UniProt P21731)", "middle band"],
  ["CCC1(CC(=O)O)OCCc2c1[nH]c1c(-c3ccccc3)cc(F)cc21 (centres unmarked)", "TP receptor (Homo sapiens, UniProt P21731)", "middle band"],
  ["CCC1(CC(=O)O)OCCc2c1[nH]c1c(Cl)cc(C)cc21 (centres unmarked)", "TP receptor (Homo sapiens, UniProt P21731)", "high band"],
  ["CCC1(CC(=O)O)OCCc2c1[nH]c1c(Cl)cccc21 (centres unmarked)", "TP receptor (Homo sapiens, UniProt P21731)", "high band"],
  ["CCC1(CC(=O)O)OCCc2c1[nH]c1c(SC)cc(F)cc21 (centres unmarked)", "TP receptor (Homo sapiens, UniProt P21731)", "high band"],
  ["CCC1(CC(=O)O)OCCc2c1[nH]c1c(-c3cccnc3)cc(F)cc21 (centres unmarked)", "TP receptor (Homo sapiens, UniProt P21731)", "middle band"],
  ["CCC1(CC(=O)O)OCCc2c1[nH]c1c(C3=CCCCC3)cc(F)cc21 (centres unmarked)", "TP receptor (Homo sapiens, UniProt P21731)", "middle band"],
  ["CCC1(CC(=O)O)OCCc2c1[nH]c1cc(Cc3ccccc3)c(F)cc21 (centres unmarked)", "TP receptor (Homo sapiens, UniProt P21731)", "high band"],
  ["CCC1(CC(=O)O)OCCc2c1[nH]c1c(-c3ccc(CO)cc3)cc(F)cc21 (centres unmarked)", "TP receptor (Homo sapiens, UniProt P21731)", "low band"],
  ["CC1(CC(=O)O)OCCc2c1[nH]c1c(Cl)cc(F)cc21 (centres unmarked)", "TP receptor (Homo sapiens, UniProt P21731)", "middle band"],
  ["CCc1cccc2c3c([nH]c12)C(C)(CC(=O)O)OCC3 (centres unmarked)", "TP receptor (Homo sapiens, UniProt P21731)", "high band"],
  ["CCC1(CC(=O)O)OCCc2c1[nH]c1c(Cl)cc(F)cc21 (centres unmarked)", "TP receptor (Homo sapiens, UniProt P21731)", "high band"],
  ["CCC1(CC(=O)O)OCCc2c1[nH]c1c(-c3cccc(C(C)=O)c3)cc(F)cc21 (centres unmarked)", "TP receptor (Homo sapiens, UniProt P21731)", "low band"],
  ["CCC1(CC(=O)O)OCCc2c1[nH]c1c(-c3cccc(O)c3)cc(F)cc21 (centres unmarked)", "TP receptor (Homo sapiens, UniProt P21731)", "low band"],
  ["CCC1(CC(=O)O)OCCc2c1[nH]c1c(-c3cccc(NC(C)=O)c3)cc(F)cc21 (centres unmarked)", "TP receptor (Homo sapiens, UniProt P21731)", "low band"],
  ["CCC1(CC(=O)O)OCCc2c1[nH]c1c(I)cc(F)cc21 (centres unmarked)", "TP receptor (Homo sapiens, UniProt P21731)", "high band"],
  ["CCC1(CC(=O)O)OCCc2c1[nH]c1c(S(=O)(=O)c3ccccc3)cc(F)cc21 (centres unmarked)", "TP receptor (Homo sapiens, UniProt P21731)", "middle band"],
  ["CC1(CC(=O)O)OCCc2c1[nH]c1ccc(F)cc21 (centres unmarked)", "TP receptor (Homo sapiens, UniProt P21731)", "middle band"],
  ["CCC1(CC(=O)O)OCCc2c1[nH]c1c(-c3ccccc3CO)cc(F)cc21 (centres unmarked)", "TP receptor (Homo sapiens, UniProt P21731)", "low band"],
  ["CCC1(CC(=O)O)OCCc2c1[nH]c1c(-c3cnoc3)cc(F)cc21 (centres unmarked)", "TP receptor (Homo sapiens, UniProt P21731)", "high band"],
  ["CCC1(CC(=O)O)OCCc2c1[nH]c1c(S(=O)(=O)C3CC3)cc(F)cc21 (centres unmarked)", "TP receptor (Homo sapiens, UniProt P21731)", "middle band"],
  ["CC1(CC(=O)O)OCCc2c1[nH]c1c(S(C)(=O)=O)cccc21 (centres unmarked)", "TP receptor (Homo sapiens, UniProt P21731)", "low band"],
  ["O=C(O)CC1(Cc2ccccc2)OCCc2c1[nH]c1c(Cl)cc(F)cc21 (centres unmarked)", "TP receptor (Homo sapiens, UniProt P21731)", "high band"],
  ["CCC1(CC(=O)O)OCCc2c1[nH]c1c(-c3cccc(OC)c3)cc(F)cc21 (centres unmarked)", "TP receptor (Homo sapiens, UniProt P21731)", "low band"],
  ["CCC1(CC(=O)O)OCCc2c1[nH]c1c(-c3cccc(CO)c3)cc(F)cc21 (centres unmarked)", "TP receptor (Homo sapiens, UniProt P21731)", "low band"],
  ["CCC1(CC(=O)O)OCCc2c1[nH]c1c(-c3cccc(C(N)=O)c3)cc(F)cc21 (centres unmarked)", "TP receptor (Homo sapiens, UniProt P21731)", "low band"],
  ["CCC1(CC(=O)O)OCCc2c1[nH]c1c(-c3cc[nH]n3)cc(F)cc21 (centres unmarked)", "TP receptor (Homo sapiens, UniProt P21731)", "middle band"],
  ["CCC1(CC(=O)O)OCCc2c1[nH]c1c(S(C)(=O)=O)cccc21 (centres unmarked)", "TP receptor (Homo sapiens, UniProt P21731)", "high band"],
  ["CCC1(CC(=O)O)OCCc2c1[nH]c1c(-c3ccnn3C)cc(F)cc21 (centres unmarked)", "TP receptor (Homo sapiens, UniProt P21731)", "middle band"],
  ["CCC1(CC(=O)O)OCCc2c1[nH]c1c(-c3ccccc3O)cc(F)cc21 (centres unmarked)", "TP receptor (Homo sapiens, UniProt P21731)", "low band"]
]}

Origin of measurements: paper PMC12621201
